biological target: caspase 9 (Homo sapiens); test: Caspase inhibition assay, Ac-LEHD-AFC substrate; format: biochemical; conditions: non-esterase treated inhibitor
Sequence (P55211 1-315 limits assumed, species assumed): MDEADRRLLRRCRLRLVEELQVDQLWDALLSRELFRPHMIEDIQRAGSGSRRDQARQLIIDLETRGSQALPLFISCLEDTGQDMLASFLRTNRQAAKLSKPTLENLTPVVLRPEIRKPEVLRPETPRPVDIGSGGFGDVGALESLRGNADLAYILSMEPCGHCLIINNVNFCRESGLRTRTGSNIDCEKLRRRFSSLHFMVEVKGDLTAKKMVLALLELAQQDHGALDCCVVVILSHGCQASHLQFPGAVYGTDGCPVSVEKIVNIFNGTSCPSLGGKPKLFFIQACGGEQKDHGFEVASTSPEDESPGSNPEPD
Sequence (P55211 331-416 limits assumed, species assumed): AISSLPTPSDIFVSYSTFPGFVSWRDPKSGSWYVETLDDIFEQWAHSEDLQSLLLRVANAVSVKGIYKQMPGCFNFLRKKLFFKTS
Counter-ions that a name gives are not always drawn.
MEASUREMENT TYPE: IC50

Fill in: IC50 of COC(=O)CC(NC(=O)C(CC(C)C)NC(=O)c1ccc2ccccc2n1)C(=O)CF [quinoline-(2-carbonyl)-L-D(OMe)—CH2-FMK, TFA] is ___
~65 nM

Fill in: IC50 of COC(=O)CC(NC(=O)C(NC(=O)c1ccc2ccccc2n1)C(C)C)C(=O)CF (centres unmarked) is ___
~29 nM

---

Tested on: WEHI 231 cells
Test: TUNEL analysis of Actinomycin D induced apoptosis, flow cytometry
Format: cell-based, murine
Conditions: 40 μM inhibitor + ActD, WEHI 231
Description: Flow Cytometry measures the percent of the cell population undergoing apoptosis. The effect of the inhibitors is identified as a reduction in the percent of the cell population undergoing apoptosis. Cell Type: WEHI 231 cells, murine immature B cells (suspension) Plate cells at 2×10^5/ml in 10 ml of media (Total 2×10^6 cells) Preincubate caspase inhibitors (Formula I) one hour before inducing apoptosis. […] Actinomycin D (ActD) stock is 1 μg/μl add 10 μl/10 ml)-Treat 4 h Process for Tunel Analysis. […]
Peptide text beside a SMILES is read from it. * marks the point of attachment. Cbz = O=C(OCc1ccccc1)*; CH2F = FC*
MEASUREMENT TYPE: % non-viable cells (%)
Give your result in % as a bare value.

Fill in: % non-viable cells of COC(=O)CC(NC(=O)C(NC(=O)c1ccc2ccccc2n1)C(C)C)C(=O)COc1c(F)cccc1F (stereo not drawn) [Inhibitor I^1, Q-Val-Asp(OMe)—CH2—OPh] is ___
3

Fill in: % non-viable cells of COC(=O)CC(NC(=O)C(C)NC(=O)C(NC(=O)OCc1ccccc1)C(C)C)C(=O)CF (stereo not drawn) [Z-VAD-FMK, reference compound] (Cbz-Val-Ala-Asp(OMe)-CH2F; configuration not given here) is ___
12

Fill in: % non-viable cells of COC(=O)CC(NC(=O)C(C)NC(=O)c1ccc2ccccc2n1)C(=O)CF (stereo not drawn) [Inhibitor D^1, Q-Ala-Asp(OMe)-FMK] is ___
1

Fill in: % non-viable cells of COC(=O)CC(NC(=O)CCNC(=O)c1ccc2ccccc2n1)C(=O)CF (stereo not drawn) [Inhibitor A^1, Q-βAla-Asp(OMe)-FMK] is ___
15

Fill in: % non-viable cells of COC(=O)CC(NC(=O)C(CC(C)C)NC(=O)c1ccc2ccccc2n1)C(=O)COc1ccccc1 (stereo not drawn) [Inhibitor J^1, Q-Leu-Asp(OMe)—CH2—OPh] is ___
2

Fill in: % non-viable cells of COC(=O)CC(NC(=O)C(C)NC(=O)C(NC(=O)OCc1ccccc1)C(C)C)C(=O)COc1c(F)cccc1F (stereo not drawn) [Inhibitor G^1, 2-Val-Ala-Asp(OMe)—CH2—OPh] is ___
62
